# Tested on: NCI-H1993
# assayMethodText: relative viability (nuclei count vs DMSO), 5 days (fraction); higher = more cells survive
# assayConditions: first compound 20 µM
relative viability values by entry
Please give the numeric answer without any surrounding text.

// fetch relative viability given entry Cc1csc(=NC2CCCCC2)n1/N=C/c1ccc(O)c(O)c1O [MIM1] + Cc1cc(Nc2cc(N3CCN(C)CC3)nc(Sc3ccc(NC(=O)C4CC4)cc3)n2)n[nH]1 [Tozasertib] (partner 0.1 µM)
0.433

// fetch relative viability given entry Cc1csc(=NC2CCCCC2)n1/N=C/c1ccc(O)c(O)c1O [MIM1] + CC1(C)CCC(c2ccc(Cl)cc2)=C(CN2CCN(c3ccc(C(=O)NS(=O)(=O)c4ccc(N[C@H](CCN5CCOCC5)CSc5ccccc5)c(S(=O)(=O)C(F)(F)F)c4)cc3)CC2)C1 [Navitoclax] (partner 0.5 µM)
0.425

// fetch relative viability given entry Cc1csc(=NC2CCCCC2)n1/N=C/c1ccc(O)c(O)c1O [MIM1] + O=C(CCCCCCC(=O)Nc1ccccc1)NO [Vorinostat] (partner 1 µM)
0.413

// fetch relative viability given entry Cc1csc(=NC2CCCCC2)n1/N=C/c1ccc(O)c(O)c1O [MIM1] + COc1cccc2cc(-c3nc([C@H]4CC[C@H](C(=O)O)CC4)n4ncnc(N)c34)[nH]c12 [OSI-027] (partner 0.5 µM)
0.474

// fetch relative viability given entry Cc1csc(=NC2CCCCC2)n1/N=C/c1ccc(O)c(O)c1O [MIM1] + N=C(N)NC(=N)NCCc1ccccc1 [Phenformin] (partner 250 µM)
0.463
